Below, each entry is listed with its recorded IC50.
# Tested on: Plasmodium falciparum
# Method Summary: In vitro antimalarial activity against Plasmodium falciparum D6 after 72 hrs in SYBR green fluorescence assay
# Format: functional, organism-based
# Measurement Context: D6, 72 h
Note: unit mg/L is implicit; provide only the numeric part.

// solved cases for IC50 follow
| Molecule | Observed Value |
| --- | --- |
| CCc1nc(N)nc(N)c1-c1ccc(Cl)cc1 [PYRIMETHAMINE] | 0.0004 |
| C=CC1CN2CC[C@H]1C[C@H]2[C@H](O)c1ccnc2ccc(OC)cc12 (single isomer, unassigned) [QUININE] | 0.0119 |
| O[C@@H](c1cc(C(F)(F)F)nc2c(C(F)(F)F)cccc12)[C@H]1CCCCN1 [MEFLOQUINE] | 0.016 |
| COc1ncnc(NS(=O)(=O)c2ccc(N)cc2)c1OC [SULFADOXINE] | 0.0024 |
| CC[C@H]1OC(=O)[C@H](C)[C@@H](O[C@H]2C[C@@](C)(OC)[C@@H](O)[C@H](C)O2)[C@H](C)[C@@H](O[C@@H]2O[C@H](C)C[C@H](N(C)C)[C@H]2O)[C@](C)(O)C[C@@H](C)CN(C)[C@H](C)[C@@H](O)[C@]1(C)O [AZITHROMYCIN] | 14.4 |

Challenge: Entry under review: Nc1ccc(S(=O)(=O)c2ccc(N)cc2)cc1 [DAPSONE] . Reported IC50?
Response given: 0.0102

Challenge: Another molecule: C[C@@H]1CC[C@H]2[C@@H](C)C(=O)O[C@@H]3O[C@@]4(C)CC[C@@H]1[C@]32OO4 [ARTEMISININ]
Response given: 0.0016

Challenge: Another molecule: C[C@H]1c2cccc(O)c2C(=O)C2=C(O)[C@]3(O)C(=O)C(C(N)=O)=C(O)[C@@H](N(C)C)[C@@H]3[C@@H](O)[C@@H]21.O [DOXYCYCLINE]
Response given: 1.85
